meta.source: patent US20200347127A1

- Assayed target: T1, recombinant human IL-17A (human, UniProt Q16552 24-155)
- T1 construct: Bought recombinant protein (Peprotech AF-200-17); also called Peprotech AF-200-17
- T1 sequence (Q16552 24-155): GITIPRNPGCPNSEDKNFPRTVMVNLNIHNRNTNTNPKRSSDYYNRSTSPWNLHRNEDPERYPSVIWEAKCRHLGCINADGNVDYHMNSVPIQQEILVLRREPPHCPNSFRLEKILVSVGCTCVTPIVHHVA
- Method: SPR (BIAcore T200), IL-17A coupled to CM5 chip, single-cycle kinetics
List of kon values.

{"columns": ["Binder", "kon, M⁻¹ s⁻¹"],
 "data": [
  ["Clone 3.6 (VHH, Human single VH domain) VHH: QVQLVQSGAEVKKPGASVKVSCAASGYTFTDYYLHWVRQAPGQGLEWMGWINPNTGTTKYAREFEGRVTMTRDTSISTAYMELSRLRSDDTAVYYCASLDRDWRSPNDYYGWFDSWGQGTLVTVSS", 573000],
  ["VH 3.2.1 (clone 3.2 expressed from phagemid vector: with linker residues and His tag) (VHH, Human single VH domain) VHH: QVQLVQSGAEVKKPGASVKVSCKASGYNADAYYINWVRQAPGQGLEWMGSIKPNTGATKYAQKFQGRVTITRDTSISTAYMELSRLRSDDTAVYYCASLDRDTWYPHSYAGWFDAWGQGTLVTVSS", "1.1e+06"],
  ["Clone 3.9 (VHH, Human single VH domain) VHH: QVQLVQSGAEVKKPGASVKVSCKASGYNFDAYHINWVRQAPGQGLEWMGSIKPNSGATKYAQKFQGRVTITRDTSISTAYMELSRLRSDDTAVYYCASMDRDYYDTSGYFGWFDSWGQGTLVTVSS", 96400],
  ["Clone 3.5 (VHH, Human single VH domain) VHH: QVQLVQSGAEVKKPGASVKVSCAASGYTFTDYYLHWVRQAPGQGLEWMGWINPNTGTTKYAREFEGRVTMTRDTSISTAYMELSRLRSDDTAVYYCASLDRDWRSPNDYFGWFDSWGQGTLVTVSS", 281000]
]}
